- assay.procedure: In vitro human liver microsomal stability assay
- Format: in vitro ADME
- details: human liver microsomes 2 mg per mL protein, NADPH-generating system, 1 μM test compound, 37±1° C., 0-240 min; change relative to non-deuterated d0 (Example 1)
- Description: In Vitro Liver Microsomal Stability Assay […] Test compounds were prepared as solutions in DMSO and added to the assay mixture (1 μM, final concentration in incubation) to be incubated at 37±1° C. […] Supernatant fractions were analyzed by LC-MS/MS to determine the percent remaining and estimate the degradation half-life of the test compounds.
The compounds listed here are annotated with their Clearance % change over d0.
A number alone suffices; assume %.

[2H]C(C)(C)Oc1ccc(-c2nc(-c3cccc4c3CC[C@@H]4NC([2H])([2H])C([2H])([2H])O)no2)cc1C#N :: 5
[2H]C([2H])([2H])C([2H])(Oc1ccc(-c2nc(-c3cccc4c3CC[C@@H]4NC([2H])([2H])C([2H])([2H])O)no2)cc1C#N)C([2H])([2H])[2H] :: 11
[2H]C([2H])([2H])C([2H])(Oc1ccc(-c2nc(-c3cccc4c3CC[C@@H]4NCCO)no2)cc1C#N)C([2H])([2H])[2H] :: 7
[2H]C(C)(C)Oc1ccc(-c2nc(-c3cccc4c3CC[C@@H]4NCCO)no2)cc1C#N :: 1
CC(C)Oc1ccc(-c2nc(-c3cccc4c3CC[C@@H]4NCCO)no2)cc1C#N [Example 1, reference compound] :: 0.00

Let us move to another entry and its Clearance % change over d0.
Field request: Clearance % change over d0 | item: `[2H]C(C)(C)Oc1ccc(-c2nc(-c3cccc4c3CC[C@]4([2H])NCCO)no2)cc1C#N`
2
